I'd appreciate it if you could supply selectivity ratio values for the items below.
# MEASUREMENT DESCRIPTION: Selectivity index, ratio of IC50 for Plasmodium falciparum NF54 to IC50 for CHO cells
# ASSAY CONDITIONS: hamster
Answers are plain numbers.

                         compound_structure            readout  endpoint_value
0  Cc1nc(-c2ccc(CCN3CCC(Nc4nc5ccccc5n4Cc4ccc(C#N)cc4)CC3)cc2)no1  selectivity ratio             115
1  N#Cc1ccc(Cn2c(NC3CCN(CCc4ccc(-c5nc(C(F)(F)F)no5)cc4)CC3)nc3ccccc32)cc1  selectivity ratio              34

Give me selectivity ratio for each of these compounds, listed below.
1. Cc1noc(-c2ccc(CCN3CCC(Nc4nc5ccccc5[nH]4)CC3)cc2)n1
2. Cc1noc(-c2ccc(CCN3CCC(Nc4nc5ccccc5n4C)CC3)cc2)n1

64.7
275

###

# Test system: Hemozoin
# MEASUREMENT DESCRIPTION: Inhibition of Beta-hematin in Plasmodium falciparum NF54 assessed as hemozoin formation after 36 hrs by flow cytometry analysis
Calls of active or inactive are those of the source. The calls are words filed in the database; no cut-off is given here.
Choose the fitting class; nothing outside active, inactive is accepted.

Status in this test for `N#Cc1ccc(Cn2c(NC3CCN(CCc4ccc(-c5nc(C(F)(F)F)no5)cc4)CC3)nc3ccccc32)cc1` ?
active

Status in this test for `FC(F)(F)c1noc(-c2ccc(CCN3CCC(Nc4nc5ccccc5[nH]4)CC3)cc2)n1` ?
inactive

Status in this test for `Cc1noc(-c2ccc(CCN3CCC(Nc4nc5ccccc5n4Cc4ccc(C(F)(F)F)nc4)CC3)cc2)n1` ?
active

Status in this test for `N#Cc1ccc(Cn2c(NC3CCN(CCc4ccc(-c5noc(C(F)(F)F)n5)cc4)CC3)nc3ccccc32)cc1` ?
active

###

I'd appreciate it if you could supply half-life values for the items below.
# MEASUREMENT DESCRIPTION: Apparent half life in mouse at 50 mg/kg, po
# Format: ADME, organism-based
# ASSAY CONDITIONS: in vivo, read-out: t1/2(app) (converted)
Give bare numbers, in h.

                         compound_structure    readout  endpoint_value
0  Cc1noc(-c2ccc(CCN3CCC(Nc4nc5ccccc5[nH]4)CC3)cc2)n1  half-life             9.2

Moving on to the next compound.
Consider the compound `FC(F)(F)c1noc(-c2ccc(CCN3CCC(Nc4nc5ccccc5[nH]4)CC3)cc2)n1` and give its measured half-life.
10.2

###

I'd appreciate it if you could supply bioavailability values for the items below.
# MEASUREMENT DESCRIPTION: Oral bioavailability in mouse at 50 mg/kg
# Format: ADME, organism-based
# ASSAY CONDITIONS: in vivo
Give bare numbers, in %.

>>> df
                         compound_structure  endpoint_value
0  Cc1noc(-c2ccc(CCN3CCC(Nc4nc5ccccc5[nH]4)CC3)cc2)n1              61

Moving on to the next compound.
Consider the compound `FC(F)(F)c1noc(-c2ccc(CCN3CCC(Nc4nc5ccccc5[nH]4)CC3)cc2)n1` and give its measured bioavailability.
93.3

###

# MEASUREMENT DESCRIPTION: Cmax in mouse at 50 mg/kg, po
# Type: ADME, organism-based
# Set-up: dose 50 mg/kg, route po
# ASSAY CONDITIONS: in vivo
READOUT: Cmax (µM)
Give bare numbers, in µM.

>>> print(df.to_string())
                         compound_structure  readout  endpoint_value
0  FC(F)(F)c1noc(-c2ccc(CCN3CCC(Nc4nc5ccccc5[nH]4)CC3)cc2)n1     Cmax             1.5

Moving on to the next molecule.
Consider the molecule `Cc1noc(-c2ccc(CCN3CCC(Nc4nc5ccccc5[nH]4)CC3)cc2)n1` and give its measured Cmax.
5.9

###

# SYSTEM NAME: UniProtKB Q12809
# Sequence (Q12809 whole entry): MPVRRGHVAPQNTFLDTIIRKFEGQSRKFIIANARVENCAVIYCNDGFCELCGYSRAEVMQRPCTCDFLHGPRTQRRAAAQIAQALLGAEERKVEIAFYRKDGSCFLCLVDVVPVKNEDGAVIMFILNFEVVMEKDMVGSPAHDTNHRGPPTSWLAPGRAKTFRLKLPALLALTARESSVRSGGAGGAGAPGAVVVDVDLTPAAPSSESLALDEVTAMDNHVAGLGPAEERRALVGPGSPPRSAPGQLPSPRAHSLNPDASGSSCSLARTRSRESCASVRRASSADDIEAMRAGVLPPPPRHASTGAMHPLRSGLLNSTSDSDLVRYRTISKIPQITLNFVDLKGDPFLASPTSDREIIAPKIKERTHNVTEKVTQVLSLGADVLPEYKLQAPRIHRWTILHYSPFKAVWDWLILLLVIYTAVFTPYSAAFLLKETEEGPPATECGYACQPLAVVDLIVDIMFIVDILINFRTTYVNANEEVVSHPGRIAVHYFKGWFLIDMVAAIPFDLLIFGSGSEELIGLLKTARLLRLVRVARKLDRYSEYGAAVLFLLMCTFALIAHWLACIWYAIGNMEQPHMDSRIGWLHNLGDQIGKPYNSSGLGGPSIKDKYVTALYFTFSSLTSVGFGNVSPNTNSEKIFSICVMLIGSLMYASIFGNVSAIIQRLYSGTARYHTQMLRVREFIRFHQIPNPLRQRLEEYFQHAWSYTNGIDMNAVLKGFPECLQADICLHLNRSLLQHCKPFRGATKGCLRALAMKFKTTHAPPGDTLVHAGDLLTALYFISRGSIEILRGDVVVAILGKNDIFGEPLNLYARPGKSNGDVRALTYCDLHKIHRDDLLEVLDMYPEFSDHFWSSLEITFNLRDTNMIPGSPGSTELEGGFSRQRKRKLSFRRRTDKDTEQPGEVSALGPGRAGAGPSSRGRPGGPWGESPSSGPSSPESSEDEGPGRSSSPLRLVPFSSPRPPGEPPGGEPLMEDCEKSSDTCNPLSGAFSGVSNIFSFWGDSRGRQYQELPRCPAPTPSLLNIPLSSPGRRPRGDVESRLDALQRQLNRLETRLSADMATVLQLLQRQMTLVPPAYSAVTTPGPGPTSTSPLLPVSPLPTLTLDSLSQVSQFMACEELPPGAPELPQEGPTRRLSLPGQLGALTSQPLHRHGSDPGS
# MEASUREMENT DESCRIPTION: Inhibition of human ERG expressed in CHO-K1 cells by Q-patch clamp assay
pIC50: −log10 of the molar value.
READOUT: pIC50

>>> print(df.to_string())
                         compound_structure       system_name  endpoint_value
0  Cn1c(NC2CCN(CCc3ccc(C(=O)N4CCNCC4)cc3)CC2)nc2ccccc21  UniProtKB Q12809          < 4.52

Give me pIC50 for each of these compounds, listed below.
1. Cn1c(NC2CCN(CCc3ccc(C(=O)NC4(CO)CC4)cc3)CC2)nc2ccccc21
2. Cn1c(NC2CCN(CCc3ccc(-c4nc(C(=O)O)no4)cc3)CC2)nc2ccccc21

1: < 4.52; 2: < 4.52

###

I'd appreciate it if you could supply solubility kinetic at 2 h values for the items below.
# MEASUREMENT DESCRIPTION: physchem
# ASSAY CONDITIONS: buffer, pH 7.4
One number for each entry, in µM.

In [3]: df
Out[3]:
                         compound_structure                    readout  unit_abbrev  endpoint_value
0  Cn1c(NC2CCN(CCc3ccc(-c4nc(C(=O)O)no4)cc3)CC2)nc2ccccc21  solubility kinetic at 2 h           µM             120

Give me solubility kinetic at 2 h for each of these compounds, listed below.
1. Cc1noc(-c2ccc(CCN3CCC(Nc4nc5cc(S(C)(=O)=O)ccc5n4C)CC3)cc2)n1
2. CN(C)Cc1noc(-c2ccc(CCN3CCC(Nc4nc5ccccc5n4C)CC3)cc2)n1
3. Cn1c(NC2CCN(CCc3ccc(C(=O)N4CCOCC4)cc3)CC2)nc2ccccc21

1. 60
2. 120
3. 80

###

# MEASUREMENT DESCRIPTION: physchem
# ASSAY CONDITIONS: buffer, pH 7.4
Short version: solubility kinetic at 2 h at least 80 µM is Satisfied, less is Not satisfied.

>>> print(df.to_string())
                                   compound  label_value
0  COC(=O)c1ccc(CCN2CCC(Nc3nc4ccccc4n3C)CC2)cc1    Satisfied

Please check the record Cn1c(NC2CCN(CCc3ccc(C(=O)N4CCN5CCCC5C4)cc3)CC2)nc2ccccc21 (stereo not drawn) and state if its solubility kinetic at 2 h is at or above 80 µM.
Not satisfied

Please check the record `N#Cc1ccc(Cn2c(NC3CCN(CCc4ccc(-c5nc(C(F)(F)F)no5)cc4)CC3)nc3ccccc32)cc1` and state if its solubility kinetic at 2 h is at or above 80 µM.
Not satisfied

Please check the record `C[C@H]1COC(c2ccc(CCN3CCC(Nc4nc5ccccc5n4Cc4ccc(C#N)cc4)CC3)cc2)=N1` and state if its solubility kinetic at 2 h is at or above 80 µM.
Not satisfied

Please check the record `CC(C)c1noc(-c2ccc(CCN3CCC(Nc4nc5ccccc5n4C)CC3)cc2)n1` and state if its solubility kinetic at 2 h is at or above 80 µM.
Not satisfied

###

# MEASUREMENT DESCRIPTION: Selectivity index, ratio of IC50 for Plasmodium falciparum NF54 to IC50 for CHO cells
# ASSAY CONDITIONS: hamster
READOUT: selectivity ratio
Numbers only.

                         compound_structure  endpoint_value
0  Cc1noc(-c2ccc(CCN3CCC(Nc4nc5ccccc5n4Cc4ccc(C(F)(F)F)nc4)CC3)cc2)n1             128
1  N#Cc1ccc(Cn2c(NC3CCN(CCc4ccc(-c5ncon5)cc4)CC3)nc3ccccc32)cc1             187
2  Cc1noc(-c2ccc(CCN3CCC(Nc4nc5ccccc5n4CC4CCCCC4)CC3)cc2)n1             477
3  N#Cc1ccc(Cn2c(NC3CCN(CCc4ccc(-c5noc(C(F)(F)F)n5)cc4)CC3)nc3ccccc32)cc1             175
4  Cc1noc(-c2ccc(CCN3CCC(Nc4nc5ccccc5n4Cc4ccc(C(F)(F)F)cc4)CC3)cc2)n1             111

Consider the compound `C[C@H]1COC(c2ccc(CCN3CCC(Nc4nc5ccccc5n4Cc4ccc(C#N)cc4)CC3)cc2)=N1` and give its measured selectivity ratio.
525

###

I'd appreciate it if you could supply solubility kinetic at 2 h values for the items below.
# MEASUREMENT DESCRIPTION: physchem
# ASSAY CONDITIONS: buffer, pH 7.4

>>> df
                                   molecule  endpoint_value
0  Cn1c(NC2CCN(CCc3ccc(C(=O)N4CCC(C)(O)C4)cc3)CC2)nc2ccccc21 (stereo not drawn)           80 µM
1  COc1ccc2c(c1)nc(NC1CCN(CCc3ccc(-c4nc(C)no4)cc3)CC1)n2C           80 µM
2  Cc1noc(-c2ccc(CCN3CCC(Nc4nc5cc(C#N)ccc5n4C)CC3)cc2)n1           80 µM
3  Cc1noc(-c2ccc(CCN3CCC(Nc4nc5ccccc5[nH]4)CC3)cc2)n1           80 µM

Give me solubility kinetic at 2 h for each of these molecules, listed below.
1. C=CCNC(=O)c1ccc(CCN2CCC(Nc3nc4ccccc4n3C)CC2)cc1
2. Cc1noc(-c2ccc(CCN3CCC(Nc4nc5ccccc5n4CC4CCCCC4)CC3)cc2)n1
3. Cc1noc(-c2ccc(CCN3CCC(Nc4nc5cc(Cl)c(Cl)cc5n4C)CC3)cc2)n1
4. Cn1c(NC2CCN(CCc3ccc(C(=O)N4CCC(O)C4)cc3)CC2)nc2ccccc21 (stereo not drawn)

1. 80 µM
2. 80 µM
3. 80 µM
4. 80 µM
